Molecular target: flTau aggregates (longest isoform of human Tau, 2N4R) (Homo sapiens)
Construct: 35 μM of recombinant full-length (fl) Tau in phosphate-buffered saline (PBS) were aggregated; purchased Biotechne; host or cells: bacteria
Sequence (P10636 1-441 isoform P10636-8): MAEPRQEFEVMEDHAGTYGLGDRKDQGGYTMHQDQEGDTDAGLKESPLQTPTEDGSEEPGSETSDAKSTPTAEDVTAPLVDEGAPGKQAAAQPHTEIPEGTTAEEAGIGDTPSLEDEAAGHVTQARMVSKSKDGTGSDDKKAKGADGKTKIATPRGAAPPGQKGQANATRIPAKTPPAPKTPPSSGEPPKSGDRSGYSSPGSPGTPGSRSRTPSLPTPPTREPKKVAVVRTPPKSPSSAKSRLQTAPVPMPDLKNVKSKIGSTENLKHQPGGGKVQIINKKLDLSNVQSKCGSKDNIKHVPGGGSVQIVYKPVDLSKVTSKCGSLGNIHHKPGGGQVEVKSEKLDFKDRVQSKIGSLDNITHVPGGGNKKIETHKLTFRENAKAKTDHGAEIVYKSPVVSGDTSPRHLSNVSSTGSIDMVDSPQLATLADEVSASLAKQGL
Assay: Full-length Tau (flTau) disaggregation assay by Thioflavin T (ThT)
Assay type: biochemical
Details: ThT fluorescence; 60 nM flTau aggregates, 30 minutes at RT; read-out: flTau disaggregation EC50
pEC50: −log10 of the molar value.
EXPERIMENTAL_READOUT: pEC50

Check out these entries, answers already filled in.
>>> df
                                   molecule  observed_value
0  Cn1cc(C2CCN(c3ccc4nc(N5CCOCC5)oc4c3)C2)c2cc(F)cnc21 (centres unmarked) [Example 89]          > 6.00
1  c1ccc2c(-c3ccn(-c4ccc5oc(N6CCOCC6)nc5c4)n3)c[nH]c2c1 [Example 11]          > 6.00
2  c1ccc2c(C3CCN(c4ccc5oc(N6CCOCC6)nc5c4)CC3)c[nH]c2c1 [Example 19]    5.00 to 6.00
3  Cn1cc(C2=CCN(c3ccc4oc(N5CCOCC5)nc4c3)CC2)c2cc(F)cnc21 [Example 32]          > 6.00
4  c1ccc2c(C3CCN(c4ccc5nc(N6CCOCC6)sc5c4)CC3)n[nH]c2c1 [Example 44]    5.00 to 6.00

Lookup: Given c1ccc2c(C3CCN(c4ccc5oc(N6CCOCC6)nc5c4)CC3)n[nH]c2c1 [Example 1] , state its recorded pEC50.
Found: > 6.00

Lookup: Now the molecule Cn1cc(-c2ccc3oc(N4CCOCC4)nc3c2)c2cc(F)cnc21 [Example 3]
Found: 5.00 to 6.00

---

Target: flTau aggregates (longest isoform of human Tau, 2N4R) (Homo sapiens)
Construct: 35 μM of recombinant full-length (fl) Tau in phosphate-buffered saline (PBS) were aggregated; purchased Biotechne; host or cells: bacteria
Assay: Full-length Tau (flTau) disaggregation assay by Thioflavin T (ThT)
Format: biochemical
Settings: flTau disaggregation EC50, ThT fluorescence; 60 nM flTau aggregates, 30 minutes at RT
pEC50: −log10 of the molar value.
EXPERIMENTAL_READOUT: pEC50

Lookup: Given Cn1cc(C2CCN(c3ccc4oc(N5CC6CC(C5)O6)nc4c3)C2)c2cc(F)cnc21 (stereo not shown) , state its recorded pEC50.
Found: 5.00 to 6.00

---

Biological target: Tau K18 fragment aggregates (amino acids 244 to 372 of human Tau441) (Homo sapiens)
Construct: encompassing amino acids 244 to 372 of the longest isoform (2N4R) of human Tau441
Sequence (P10636 561-689): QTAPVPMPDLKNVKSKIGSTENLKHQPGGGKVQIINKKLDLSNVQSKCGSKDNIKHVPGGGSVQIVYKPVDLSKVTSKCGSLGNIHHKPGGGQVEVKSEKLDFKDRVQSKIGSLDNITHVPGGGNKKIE
Assay: Tau K18 disaggregation assay by ThT
Conditions: ThT fluorescence; 2 μM K18 aggregates, 30 minutes at RT
Counter-ions that a name gives are not always drawn.
Overview of recorded EC50 for various compounds

                                   compound  observed_value
0  c1ccc2c(C3CCN(c4ccc5oc(N6CCOCC6)nc5n4)CC3)n[nH]c2c1      1 to 10 µM
1  c1cc2[nH]cc(C3CCN(c4ccc5oc(N6CCOCC6)nc5c4)CC3)c2cn1      1 to 10 µM
2  Cn1cc(C2CCN(c3ccc4oc(N5CCOCC5)nc4c3)CC2)c2cc(F)cnc21     10 to 50 µM
3  Fc1ccc2[nH]cc(C3CCN(c4ccc5oc(N6CCOCC6)nc5c4)CC3)c2c1      1 to 10 µM
4  O=C(Nc1ccc2nc(N3CCOCC3)oc2c1)c1c[nH]c2ncccc12     10 to 50 µM
5  c1ccc2c(C3CCN(c4ccc5sc(N6CCOCC6)nc5c4)CC3)n[nH]c2c1     10 to 50 µM
6  Cn1cc(C2CCN(c3ccc4nc(N5CCOCC5)sc4n3)CC2)c2cc(F)cnc21     10 to 50 µM
7  c1ccc2c(C3CCN(c4ccc5oc(N6CCOCC6)nc5c4)CC3)n[nH]c2c1          < 1 µM
8  Cn1cc(C2CCN(c3cc4sc(N5CCOCC5)nc4cn3)CC2)c2cc(F)cnc21 [Example 110, hydrochloride]     10 to 50 µM
9  O=C(Nc1ccc2nc(N3CCOCC3)sc2c1)c1c[nH]c2ccc(F)cc12      1 to 10 µM

With those in mind, consider the next compound.
Lookup: Given `Fc1cnc2c(C3CCN(c4ccc5nc(N6CCOCC6)oc5c4)CC3)c[nH]c2c1` , state its recorded EC50.
Found: 1 to 10 µM
